Test system: A375-GP cells (Dabrafenib-resistant)
Experiment: Kinase inhibitor library screening, PrestoBlue cell viability, 1 or 10 μM, 72 h
Conditions: A375 GP, 1μΜ, 72 h; in %
Mark YES for cell viability, A375 GP, 1μΜ under 90, NO if at or over.

{"molecule": "O=C(NOCC(O)CO)c1cc(Br)c(F)c(F)c1Nc1ccc(I)cc1F (stereo not shown)", "system": "A375-GP cells (Dabrafenib-resistant)", "label": "YES"}
{"molecule": "COc1cc2ncnc(Nc3ccc(O)c(Br)c3)c2cc1OC", "system": "A375-GP cells (Dabrafenib-resistant)", "label": "NO"}
{"molecule": "CCOc1cc2ncc(C#N)c(Nc3ccc(F)c(Cl)c3)c2cc1NC(=O)/C=C/CN(C)C [Pelitinib (EKB-569)]", "system": "A375-GP cells (Dabrafenib-resistant)", "label": "NO"}
{"molecule": "CCN1CCN(Cc2ccc(-c3cc4c(N[C@H](C)c5ccccc5)ncnc4[nH]3)cc2)CC1", "system": "A375-GP cells (Dabrafenib-resistant)", "label": "NO"}
{"molecule": "O=c1cc(N2CCOCC2)oc2c(-c3cccc4c3sc3ccccc34)cccc12", "system": "A375-GP cells (Dabrafenib-resistant)", "label": "NO"}
{"molecule": "O=C1NC(=O)C(c2ccccc2[N+](=O)[O-])=C1Nc1ccc(O)c(Cl)c1", "system": "A375-GP cells (Dabrafenib-resistant)", "label": "NO"}
{"molecule": "C=CC(=O)Nc1cccc(Oc2nc(Nc3ccc(N4CCN(C)CC4)cc3)ncc2Cl)c1", "system": "A375-GP cells (Dabrafenib-resistant)", "label": "YES"}
{"molecule": "Cc1cnc(Nc2ccc(N3CCN(C)CC3)cc2)nc1Nc1cccc(S(=O)(=O)NC(C)(C)C)c1", "system": "A375-GP cells (Dabrafenib-resistant)", "label": "YES"}
{"molecule": "CCOc1cc2ncc(C#N)c(Nc3ccc(OCc4ccccn4)c(Cl)c3)c2cc1NC(=O)/C=C/CN(C)C", "system": "A375-GP cells (Dabrafenib-resistant)", "label": "NO"}
{"molecule": "COc1cc2ncnc(Nc3cccc(Br)c3)c2cc1OC.Cl [PD153035 HCl]", "system": "A375-GP cells (Dabrafenib-resistant)", "label": "NO"}
{"molecule": "C=CC(=O)Nc1cccc(Sc2nc(Nc3ccc(N4CCN(C)CC4)cc3)ncc2Cl)c1", "system": "A375-GP cells (Dabrafenib-resistant)", "label": "NO"}
{"molecule": "C#Cc1cccc(Nc2ncnc3cc(OCCOC)c(OCCO)cc23)c1", "system": "A375-GP cells (Dabrafenib-resistant)", "label": "NO"}
{"molecule": "CC(=O)Nc1cccc(-n2c(=O)n(C3CC3)c(=O)c3c(Nc4ccc(I)cc4F)n(C)c(=O)c(C)c32)c1", "system": "A375-GP cells (Dabrafenib-resistant)", "label": "YES"}
